System: E. coli
Assay: Competitive inhibition of ALP binding to bacteria by added protein (Example 3, Table 2)
Settings: protein 2-40 μg added with ALP 2 μg
Entries and their inhibition of the binding of ALP by bacteria
outcomeMeasure: inhibition of the binding of ALP by bacteria

[[record]]
molecule = "Uristatin: urinary trypsin inhibitor lacking the O-linked glycoconjugate chain (protein, UniProt P02760 206-352, looked up, Inter-alpha-trypsin inhibitor light chain lacks O-linked glycan chain) Inter-alpha-trypsin inhibitor …: AVLPQEEEGSGGGQLVTEVTKKEDSCQLGYSAGPCMGMTSRYFYNGTSMACETFQYGGCMGNGNNFVTEKECLQTCRTVAACNLPIVRGPCRAFIQLWAFDAVKGKCVLFPYGGCQGNGNKFYSEKECREYCGVPGDGDEELLRFSN"
observed = ">90%"

[[record]]
molecule = "Myoglobin: non-glycated protein as received from suppliers (protein, UniProt P02144 2-154, looked up) Myoglobin: GLSDGEWQLVLNVWGKVEADIPGHGQEVLIRLFKGHPETLEKFDKFKHLKSEDEMKASEDLKKHGATVLTALGGILKKKGHHEAEIKPLAQSHATKHKIPVKYLEFISECIIQVLQSKHPGDFGADAQGAMNKALELFRKDMASNYKELGFQG"
observed = "<20%"

[[record]]
molecule = "beta-2-Glycoprotein: glycoprotein with one N-link complex type chain (protein, UniProt P02749 20-345, looked up) Beta-2-glycoprotein 1: GRTCPKPDDLPFSTVVPLKTFYEPGEEITYSCKPGYVSRGGMRKFICPLTGLWPINTLKCTPRVCPFAGILENGAVRYTTFEYPNTISFSCNTGFYLNGADSAKCTEEGKWSPELPVCAPIICPPPSIPTFATLRVYKPSAGNNSLYRDTAVFECLPQHAMFGNDTITCTTHGNWTKLPECREVKCPFPSRPDNGFVNYPAKPTLYYKDKATFGCHDGYSLDGPEEIECTKLGNWSAMPSCKASCKVPVKKATVVYQGERVKIQEKFKNGMLHGDKVSFFCKNKEKKCSYTEDAQCIDGTIEVPKCFKEHSSLAFWKTDASDVKPC"
observed = "74%"

